tested on: H9c2 cardiomyocytes, 2-deoxyglucose stress, ATP luminescence, 2 h; experiment: H9c2 cell survival under 2-deoxyglucose stress – uHTS hits, dose response (AID 588780)
The source made the active and inactive calls.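 The calls were made as follows: active = compounds whose fitted half-maximal concentration in the cell-protection dose series is at or below a set limit; inactive = the rest.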
Each entry below lists one item and its recorded IC50 value.

>  <COMPOUND>
CC(=O)c1ccccc1OCC(O)CN1CCN(CCN2C(=O)c3cccc4cccc(c34)C2=O)CC1 (centres undefined)

>  <IC50>
> 79 µM (inactive)

$$$$
>  <COMPOUND>
O=C(CCc1nc2ccccc2c(=O)[nH]1)NNC(=O)COc1cccc(F)c1

>  <IC50>
> 79 µM (inactive)

$$$$
>  <COMPOUND>
CCOC(=O)C1CCN(C(=O)c2ccc3c(=O)n4nc(Nc5ccccc5OC)sc4nc3c2)CC1

>  <IC50>
19.3 µM

$$$$
>  <COMPOUND>
Cc1ccc(-c2csc(N3CCC[C@@H]3C(=O)NCCn3c(-c4ccncc4)nc4ccccc43)n2)cc1

>  <IC50>
> 79 µM (inactive)

$$$$
>  <COMPOUND>
CC1(C)CC2C1CCC1(O)CC2(C)CCC1N(O)c1ccc(C(=O)NCCO)cn1 (centres undefined)

>  <IC50>
28.5 µM

$$$$
>  <COMPOUND>
CN(C)CCNc1ccc(-c2n[nH]c(=O)c3ccccc23)cc1[N+](=O)[O-]

>  <IC50>
> 79 µM (inactive)

$$$$
>  <COMPOUND>
COc1ccc(-c2cc(C(=O)N(C)Cc3nc4ccccc4c(=O)[nH]3)c3ccccc3n2)cc1OC

>  <IC50>
> 79 µM (inactive)

$$$$
>  <COMPOUND>
O=C(CCc1nc2ccccc2c(=O)[nH]1)NCCN1C(=O)S/C(=C\c2ccc(OC(F)F)cc2)C1=O

>  <IC50>
> 79 µM (inactive)

$$$$
>  <COMPOUND>
c1cc2[nH]snc2c2nc(C3CC3)nc12

>  <IC50>
10.2 µM

$$$$
